Source listed as PubChem BioAssay (NCI).

Measured GI50 of individual entries
- System: HS 578T breast
- ASSAY: NCI tumour cell line growth inhibition, 48 h

In [3]: df
Out[3]:
                                   compound  readout  recorded_measurement
0  O=C(NCCc1ccccn1)OCc1nc2nc(Cl)nc(N3CCOCC3)c2[nH]1     GI50               2710 nM
1  NCCOCCOCCNc1nc(-c2ccc(Cl)cc2)nc(N2CCN(c3ccccn3)CC2)n1     GI50               1920 nM
2  Cc1nn2c(/C=C3/C(=O)Nc4cc(Cl)ccc43)c(-c3ccccc3)nc2s1     GI50               3520 nM
3  CCCCCCCCNCCC[C@@H](C)[C@H]1CC[C@H]2[C@@H]3[C@H](OCCCN)C[C@H]4C[C@H](OCCCN)CC[C@]4(C)[C@H]3C[C@H](OCCCN)[C@]12C     GI50               2430 nM

Quick check: GI50 of Cn1cc(C2=C(c3cn(C)c4ccc(Cl)cc34)C(=O)NC2=O)c2ccccc21 ? 2110 nM

Quick check: GI50 of Cc1c(-c2ccnc(N)n2)c2c(n1Cc1ccccc1)C(=O)c1ccccc1C2=O ? 2620 nM

Quick check: GI50 of O=c1cc(N/N=C/c2ccc(F)cc2)c2cc(Cl)ccc2[nH]1 ? 25300 nM

Quick check: GI50 of COc1ccc(C(=O)NNc2nc(Cl)nc(N3CCN(C(c4ccccc4)c4ccccc4)CC3)n2)cc1 ? 1950 nM

Quick check: GI50 of COC(=O)COc1ccc(/C=C2/N=C(c3ccccc3)N(c3c(C)n(C)n(-c4ccccc4)c3=O)C2=O)cc1 ? 24700 nM

Quick check: GI50 of COc1ccc(C(O)c2cc3c(N)c(C(=O)Nc4cccc(Cl)c4)sc3nc2C)cc1 (stereo not given) ? 825 nM

###

- Tested on: DLD-1 colon
- ASSAY: NCI tumour cell line growth inhibition, 48 h
READOUT: TGI

>>> df
                                   compound  recorded_measurement
0  O=C1CC(c2[nH]nc3ccccc23)C(=O)N1c1ccccc1 (centres undefined)              > 100 µM

Quick check: TGI of CC1=C2C(=CO[C@H](C)[C@H]2C)C(=O)C(C(=O)O)=C1O ? 66.9 µM

Quick check: TGI of NNC(=O)C(=O)N/N=C1\CCC(=O)CC1C(=O)CCC(=O)Nc1ccc(Cl)cc1 (centres undefined) ? > 100 µM

Quick check: TGI of N/N=C1\C(=O)N(c2ccc(Cl)cc2Cl)C(=O)C(=O)C1c1nc2ccccc2o1 (centres undefined) ? > 100 µM

###

- Test system: SK-MEL-28 melanoma
- ASSAY: NCI tumour cell line growth inhibition, 48 h
READOUT: TGI

Some entries whose results are on file:
COMPOUND	TGI
CC(C)(C)OC(=O)NCC(CNC(=O)OC(C)(C)C)c1nc(C(N)=O)cs1	> 100 µM
CC(C)Cc1ccc(C(C)CC2=CCC(CN(C)C)C2=O)cc1 (centres undefined)	21.9 µM
Cc1ccc(S(=O)CC(CF)OCn2cc(C)c(=O)[nH]c2=O)cc1 (centres undefined)	> 100 µM
O=S(=O)(NCn1ccc2ccccc21)c1ccccc1	> 100 µM

Quick check: TGI of Cc1ccc(S(=O)(=O)c2nc(-c3ccccc3)oc2S(C)=O)cc1 (centres undefined) ? 3.5 µM

Quick check: TGI of C1=C2CCCC3=Cc4ccccc4OC23Oc2ccccc21 ? > 100 µM

Quick check: TGI of N/N=C1\C(=O)N(c2ccc(Cl)cc2Cl)C(=O)C(=O)C1c1nc2ccccc2o1 (centres undefined) ? > 100 µM

###

- System: SK-MEL-28 melanoma
- ASSAY: NCI tumour cell line growth inhibition, 48 h
READOUT: TGI

Quick check: TGI of c1ccc2c(c1)SCCCSCCSCCCS2 ? > 100 µM

Quick check: TGI of O=c1c(-c2ccccc2)c(SCCO)n(-c2ccccc2)c(=S)n1-c1ccccc1 ? > 100 µM

Quick check: TGI of Cc1nn(-c2ccccc2)c(C)c1/C=N/N=C1\S/C(=C\c2ccc(Cl)cc2)C(=O)N1c1ccccc1 ? > 100 µM

###

- Tested on: BT-549 breast
- ASSAY: NCI tumour cell line growth inhibition, 48 h; in the data active = GI50 below about 0.43 µM; inactive = the rest
Can you answer with just one of these options? y (active), n (inactive)

Hi team, can someone confirm the assay call for COc1ccc(-c2nc(-c3nc4ccc(F)cc4[nH]3)c3ccccn23)cc1 ? n

Hi team, can someone confirm the assay call for O=C(NCCc1ccccn1)OCc1nc2nc(Cl)nc(N3CCOCC3)c2[nH]1 ? n

Hi team, can someone confirm the assay call for Cc1nc2ccc(NC(=O)CCNC(=O)CCCc3ccc(CC(C(=O)O)C(=O)O)cc3)cc2s1 ? n

Hi team, can someone confirm the assay call for CCCCCC[C@H](C)Nc1nc2ccccc2c2occc12 ? n

Hi team, can someone confirm the assay call for COc1ccc(C(=O)NNc2nc(Cl)nc(N3CCN(C(c4ccccc4)c4ccccc4)CC3)n2)cc1 ? n

Hi team, can someone confirm the assay call for C#Cc1nc2ccccc2c(=O)[nH]1 ? y

Hi team, can someone confirm the assay call for Cc1ccc(S(=O)(=O)c2nc(-c3ccccc3)oc2S(C)=O)cc1 (stereo not drawn) ? n

Hi team, can someone confirm the assay call for OCc1ccc(-c2cscc2-c2ccc(CO)o2)o1 ? n

###

- System: NCI/ADR-RES ovarian
- ASSAY: NCI tumour cell line growth inhibition, 48 h
READOUT: GI50

Some entries whose results are on file:
>>> df
                                   molecule  recorded_measurement
0  O=C(Nc1ccc(-c2nc(-c3cccc(OCCN4CCOCC4)c3)c(-c3ccnc(Br)c3)[nH]2)cc1)c1ccccc1                5.2 µM
1  COc1ccc(C(O)c2cc3c(N)c(C(=O)Nc4cccc(Cl)c4)sc3nc2C)cc1 (stereo not drawn)               1.11 µM

Quick check: GI50 of C=C1CCC2(C#N)[C@H]3[C@H](CC[C@@H]2C)[C@@H](C)C[C@@H](CC(C)(C)NC(=O)CN2CCC2=O)[C@H]13 (stereo partly drawn) ? 11.3 µM

###

Measured TGI of individual entries
- System: M14 melanoma
- ASSAY: NCI tumour cell line growth inhibition, 48 h

Some entries whose results are on file:
>>> df
                                   molecule  recorded_measurement
0  CC1CCSC(N(C(=O)N(C)c2ccccc2)c2ccccc2)=N1 (stereo not drawn)              > 100 µM
1  C1CC2CN(CCCN3CCOCC3)C(C1)O2 (stereo not drawn)              > 100 µM

Here is another molecule to look at.
API: value(readout=TGI, system=M14 melanoma) for record Cn1c(=O)oc2nc(-c3ccccc3)cc(C(F)(F)F)c21 > 100 µM

###

- System: MDA-N
- ASSAY: NCI tumour cell line growth inhibition, 48 h
Where a SMILES comes first, the peptide text is derived from it. [ ]: non-standard residue; d: D form. The star is where a group is joined. Bn2Val = CC(C)[C@@H](C(=O)*)N(Cc1ccccc1)Cc1ccccc1; NH(4-Cl-benzyl) = Clc1ccc(CN*)cc1; NMeV = CN[C@H](C(=O)O)C(C)C; dNMeA = CN[C@H](C)C(=O)O
READOUT: TGI

Some entries whose results are on file:
COMPOUND	READOUT	RECORDED MEASUREMENT
C/C(=N\Nc1nc2ccccc2n1C)c1cc2ccccc2cn1	TGI	16.6 µM
COc1cc(C)c(C2NC(=O)c3ccccc3N2)cc1C (stereo not given)	TGI	0.128 µM
CC(=O)NC1C(OCc2ccccc2)OC(CO)C(O)C1OC(C)C(=O)NC(C(=O)NC(CCC(=O)NCCCCNc1c2ccccc2nc2cccc([N+](=O)[O-])c12)C(N)=O)C(C)C (stereo not given)	TGI	3.67 µM
O=C(Cc1ccc(Cl)c(Cl)c1)NCC1(N2CCCCC2)CCCCC1	TGI	> 100 µM

Quick check: TGI of CC(C)[C@H](NC(=O)[C@H](C(C)C)N(Cc1ccccc1)Cc1ccccc1)C(=O)N(C)[C@H](C(=O)N1CCC[C@H]1C(=O)N(C)[C@H](C)C(=O)NCc1ccc(Cl)cc1)C(C)C (Bn2Val-V[NMeV]P[dNMeA]-{NH(4-Cl-benzyl)}) ? 30.9 µM

###

- Tested on: SK-MEL-5 melanoma
- ASSAY: NCI tumour cell line growth inhibition, 48 h
READOUT: TGI (µM)
Write the value in µM as a bare number.

Some entries whose results are on file:
COMPOUND	READOUT	SCALE UNIT	RECORDED MEASUREMENT
Cc1ccccc1-c1nc2c(C(=O)NCCN(C)C)cccc2[nH]1	TGI	µM	53.7
CN(C)CCCNc1ccc2nnn3c4ccc(O)cc4c(=O)c1c23	TGI	µM	19.7
C=C=C(CC(CC(=C)Br)(C(=O)OC)C(=O)OC)S(=O)(=O)c1ccccc1	TGI	µM	10.3
C/C(=N\Nc1nc2cc(C(F)(F)F)ccc2s1)c1ccccn1	TGI	µM	12.1
Cc1c(-c2ccnc(N)n2)c2c(n1Cc1ccccc1)C(=O)c1ccccc1C2=O	TGI	µM	27.8
CC(=O)NC1C(OCc2ccccc2)OC(CO)C(O)C1OC(C)C(=O)NC(C(=O)NC(CCC(=O)NCCCCNc1c2ccccc2nc2cccc([N+](=O)[O-])c12)C(N)=O)C(C)C (stereo not given)	TGI	µM	7.39

API: value(readout=TGI, system=SK-MEL-5 melanoma) for record C=CCC1C(O[Si](C)(C)C(C)(C)C)C(CO[Si](C)(C)C(C)(C)C)OC1n1ccc(=O)[nH]c1=O (stereo not given) 2.91
